Please go through the items and note down their IC50 (neutralization).
target desc: HIV-1 Env of isolate MGRM-F1-023 (subtype F) (HIV-1)
assay method text: cell-based or functional assay
Dear colleague, please send the value followed by its unit.

Task: Given PGT-125 (antibody, V domains shown) VH: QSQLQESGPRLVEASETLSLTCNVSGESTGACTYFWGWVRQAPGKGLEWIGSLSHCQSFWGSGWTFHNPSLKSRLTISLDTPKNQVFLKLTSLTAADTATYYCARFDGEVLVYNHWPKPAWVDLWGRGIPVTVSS VL: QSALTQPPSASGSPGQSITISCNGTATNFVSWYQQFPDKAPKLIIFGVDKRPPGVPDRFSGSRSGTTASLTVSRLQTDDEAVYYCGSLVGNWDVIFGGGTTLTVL , respond with its IC50 (neutralization).
Output: 0.012 µg/mL

Task: Given PGT-130 (antibody, V domains shown) VH: QVQLQESGPGLVKPAETLSLTCSVSGESINTGHYYWGWVRQVPGKGLEWIGHIHYTTAVLHNPSLKSRLTIKIYTLRNQITLRLSNVTAADTAVYHCVRSGGDILYYYEWQKPHWFSPWGPGIHVTVSS VL: QSALTQPPSASGSLGQSVTISCNGTSSDIGGWNFVSWYQQFPGRAPRLIIFEVNKRPSGVPGRFSGSKSGNSASLTVSGLQSDDEGQYFCSSLFGRWDVVFGGGTKLTVL , respond with its IC50 (neutralization).
Output: 0.05 µg/mL
